- Target: UniProtKB P41145
- Sequence (P41145 whole entry): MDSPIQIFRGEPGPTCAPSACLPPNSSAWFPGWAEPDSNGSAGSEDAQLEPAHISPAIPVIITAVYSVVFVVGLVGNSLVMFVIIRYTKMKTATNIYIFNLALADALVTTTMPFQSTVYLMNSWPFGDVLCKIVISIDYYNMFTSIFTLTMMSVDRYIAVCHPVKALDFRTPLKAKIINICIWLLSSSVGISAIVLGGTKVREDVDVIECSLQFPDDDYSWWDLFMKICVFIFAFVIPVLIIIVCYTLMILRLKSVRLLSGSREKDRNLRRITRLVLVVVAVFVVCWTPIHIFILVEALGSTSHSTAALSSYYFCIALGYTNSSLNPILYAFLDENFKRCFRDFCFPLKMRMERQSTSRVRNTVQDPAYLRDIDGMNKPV
- Test: κ-opioid receptor GTPγS functional assay, U2OS cells
- Format: biochemical
- Design: expressed in transfected cells; host or cells: U-2 OS
- Conditions used: U2OS cells; read-out: GTPγS κ EC50
Measurement kind: pEC50
Numbers only, as −log10 of the molar value.

>  <Line notation>
COC(=O)c1ccc(CC(=O)NCC[C@]23CCN(CC4CC4)[C@H](Cc4ccc(OC)cc42)[C@@H]3C)cc1

>  <pEC50>
7.88

$$$$
>  <Line notation>
C[C@H]1[C@H]2Cc3ccc(O)cc3[C@]1(CCNC(=O)c1ccc(C(=O)O)cc1)CCN2CC1CC1

>  <pEC50>
7.45

$$$$

// each compound listed below needs its pEC50
1. COc1ccc2c(c1)[C@]1(CCNC(=O)[C@@H]3CCCN3C(C)=O)CCN(CC3CC3)[C@H](C2)[C@@H]1C
2. COc1ccc2c(c1)[C@]1(CCOCc3ccccc3)CCN(CC3CC3)[C@H](C2)[C@@H]1C
3. COc1ccc2c(c1)[C@]1(CCOCc3ccccc3)CCN(C)[C@H](C2)[C@@H]1C
4. C[C@H]1[C@H]2Cc3ccc(O)cc3[C@]1(CCCC(=O)N(C)C)CCN2CC1CCC1
5. C[C@H]1[C@H]2Cc3ccc(O)cc3[C@]1(CCOc1cncc(C(=O)O)c1)CCN2C

Response line:
7.20
9.02
6.98
9.31
6.36
